# target: RSV F protein of subtype A (strain A2) on recombinant mKate-RSV (respiratory syncytial virus subtype A …, UniProt P03420 26-574)
# test-protocol: cell-based or functional assay
metric-name: Neut IC50 subtype A (µg/mL)
// return numeric value only (unit: µg/mL, not printed)

[in] Would you kindly share the measured Neut IC50 subtype A for ADI-18995 (antibody, V domains shown, full-length IgG; also called Antibody Number 343) VH: EVQLVESGPGLVKPSETLSLSCIVSGGSITSGDYYWSWLRQSPGKGLEWIGYIYHSGATFYTPSLRSRVTISTDTSKNQFSLRLSSVTAADTAVYYCASGPVGMATSNWFDPWGQGTLVTVSS VL: SYELTQPPSVSVAPGKTATITCGGDIIRTNSVNWYQQKPGQAPLLLIYYDSDRPSGIPERFSASNSGNTATLTISRVEAGDEADYYCQVWDSGTDYHVVFGGGTKLTVQ ?
[out] 0.043
